Molecular target: T1, Smc5 hinge (extended-hinge);Smc6 hinge F528A (Schizosaccharomyces …, UniProt O13710;P53692 364-692;462-773, |F528A)
T1 sequence 1: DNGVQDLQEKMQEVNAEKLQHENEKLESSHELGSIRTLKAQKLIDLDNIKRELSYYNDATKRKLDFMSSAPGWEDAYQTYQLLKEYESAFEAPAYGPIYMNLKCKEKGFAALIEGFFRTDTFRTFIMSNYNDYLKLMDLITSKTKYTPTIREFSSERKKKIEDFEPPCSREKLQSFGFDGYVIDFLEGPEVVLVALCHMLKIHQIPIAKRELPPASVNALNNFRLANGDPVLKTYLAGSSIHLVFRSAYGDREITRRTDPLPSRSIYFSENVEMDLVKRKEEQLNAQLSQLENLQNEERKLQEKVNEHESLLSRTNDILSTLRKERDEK
T1 sequence 2: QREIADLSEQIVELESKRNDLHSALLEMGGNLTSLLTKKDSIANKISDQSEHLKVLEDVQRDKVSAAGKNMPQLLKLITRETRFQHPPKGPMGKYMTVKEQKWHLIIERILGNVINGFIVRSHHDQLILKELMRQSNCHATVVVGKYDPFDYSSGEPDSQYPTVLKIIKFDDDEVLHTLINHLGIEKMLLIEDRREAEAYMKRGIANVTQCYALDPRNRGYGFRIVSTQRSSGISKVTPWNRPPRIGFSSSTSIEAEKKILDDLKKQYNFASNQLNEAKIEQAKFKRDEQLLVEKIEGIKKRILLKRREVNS
Assay: fluorescence polarization; 20 mM HEPES.NaOH pH 7.5, 100 mM NaCl, 1 mM EDTA, 0.5 mM TCEP, room temperature 10 min, 100 nM DNA (FP, EMSA); pull-down same buffer, protein incubation 4 C 30 min; switchSENSE buffer not given
Details: protein: recombinant;recombinant, tags: N-terminal His6, HRV-3C cleaved;N-terminal StrepII, copies: 1;1, label: 5' fluorescein, single strand
assay_metric: Kd

For GCTCGTCTGGCTCTG (ssDNA) [15mer] , what is its reported Kd?
~1.7 µM

Values were extracted from paper PMC5290277.
